Listed compounds paired with reported melting point
MEASURED_ATTRIBUTE: melting point

compound=CNC(=O)Oc1ccc(CN2CCN(c3ccc([N+](=O)[O-])cc3)CC2)cc1OC val="155 to 157 °C"
compound=Cn1c(-c2ccc(-n3ccnc3)cc2)cnc1[C@H](Cc1ccccn1)N(C=O)c1cc2cccnc2o1 val="108 to 110 °C"
compound=CCOC(=O)Cn1c2c([nH]c(=O)c1=O)CCC1=C2C=C(n2ccc(CN3CCN(C(c4ccccc4)c4ccccc4)CC3)c2)CC1 val="> 200 °C"
compound=CCOc1nc(C)nc(N2CCc3ccccc3CC2)c1[N+](=O)[O-] val="145 to 147 °C"
compound=Cc1cccc(Nc2ncnc3ccc(CSc4nc5ccccc5[nH]4)cc23)c1 val="123 to 129 °C"
compound=CC(=O)c1ccc2c(c1)C(=O)c1ccccc1CN2Cc1ccccc1 val="163 to 165 °C"
compound=CC(=O)c1c(NC(=O)c2ccc([N+](=O)[O-])cc2)cccc1C(F)(F)F val="245 °C"
compound=ClC1=NCc2c(-c3noc(C4CC4)n3)ncn2-c2ccc(Cl)cc21 val="200 °C"
compound=Cc1cccc(C(=O)n2c3c(c4ccccc42)CC(C(=O)O)(C(=O)O)CC3)c1 val="195 to 200 °C"
compound="CC(COc1ccc(CC2SC(=O)NC2=O)cc1)NCC(O)Cc1ccccc1 (stereo not drawn)" val="145 to 152 °C"
compound=COC1=C(C(=O)c2ccc(Cl)cc2Cl)C(=O)CCC1 val="81 to 86 °C"
compound="CC(=O)N[C@H]1c2cc(C#N)ccc2OC(C)(C)[C@H]1O (relative stereo)" val="193 to 194 °C"
compound=CCCCOS(C)(=O)=O val="100 to 101 °C"
compound=OC(c1ccc(Br)cc1)(c1ccc(Br)cc1)c1cncnc1 val="89 to 90 °C"
compound=Clc1nccc(N2CCC3(CC2)OCc2ccccc23)c1Cl val="161 °C"
compound=O=C(O)CCC/C=C\C[C@@H]1[C@H]2CC[C@H](C2)[C@H]1NC(=O)c1csc2ccc(O)cc12 val="141 to 142 °C"
compound=COc1ccc(Cl)ccc1=O val="124 to 126 °C"
compound=CSc1noc(-c2ccc(OCCOc3ccccc3)cc2)c1C#N val="128 to 131 °C"
